biological target: human S1P1 receptor (Homo sapiens, UniProt P21453); construct: membranes used; experiment: GTP γ35S binding assay for S1P1 activity; details: membranes of cells stably expressing S1P1; test concentrations 0.08 to 5,000 nM; read-out: S1P1 GTPγ^35S EC50
Sequence (P21453 whole entry): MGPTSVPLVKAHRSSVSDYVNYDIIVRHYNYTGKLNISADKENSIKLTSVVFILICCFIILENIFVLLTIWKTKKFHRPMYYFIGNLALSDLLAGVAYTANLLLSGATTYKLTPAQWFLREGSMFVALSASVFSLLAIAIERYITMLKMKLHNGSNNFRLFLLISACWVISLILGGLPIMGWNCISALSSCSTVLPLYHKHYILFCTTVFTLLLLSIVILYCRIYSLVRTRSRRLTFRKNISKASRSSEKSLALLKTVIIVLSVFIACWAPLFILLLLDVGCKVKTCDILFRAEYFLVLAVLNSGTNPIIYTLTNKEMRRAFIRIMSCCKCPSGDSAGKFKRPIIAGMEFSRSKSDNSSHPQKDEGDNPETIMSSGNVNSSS
metricName: EC50 (nM)
Quick note: give the figure in nM, leave out the unit.

Summary for this molecule, CC(C)Oc1ccc(-c2nc(-c3ccc(Cn4ccnc4)cc3C(F)(F)F)no2)cc1[N+](=O)[O-] : EC50 is 6.37

// EC50 lookup, molecule = CC(C)Oc1ccc(-c2nc(-c3ccc(Cn4ccnc4)cc3C(F)(F)F)no2)cc1Br , result: 102

Briefly, EC50 measured for CC(C)Oc1ccc(-c2nc(-c3ccc(Cn4ccnc4)cc3)no2)cc1Br [Compound 14] : 0.92

The molecule listed as Cc1cc(Cn2ccnc2)ccc1-c1noc(-c2ccc(OC(C)C)c(C#N)c2)n1 [Compound 13] has a reported EC50 of 4.76

response.value for Cc1cc(Cn2ccnc2)ccc1-c1noc(-c2ccc(OC(C)C)c([N+](=O)[O-])c2)n1 [Compound 19] (field: EC50) = 8.98

The molecule identified as CC(C)COc1ccc(-c2nc(-c3ccc(Cn4ccnc4)cc3)no2)cc1C#N [Compound 8] registered its EC50 at 62

Briefly, EC50 measured for CC(C)Cc1ccc(-c2nc(-c3ccc(Cn4ccnc4)cc3)no2)cc1 [Compound 10] : 543

GET /value?item= Brc1cc(-c2nc(-c3ccc(Cn4ccnc4)cc3)no2)ccc1OC1CC1 [Compound 1] &field=EC50 returns 14.4
